Origin of the recorded values: ChEMBL document CHEMBL3994568

# Tested on: Aspergillus flavus
# protocol details: Antifungal activity against Aspergillus flavus ATCC 204304 after 24 hrs by two-fold microbroth dilution method
# Assay type: functional
# measurement setup: ATCC 204304, 24 h
reported property: MIC (µg/mL)
Give bare numbers, in µg/mL.

Some entries whose results are on file:
# structure as smiles, reported property, measurement unit, data value
measured = [
    ("CCCCCCn1c2ccc(C(=O)CCl)cc2c2cc(C(=O)CCl)ccc21", "MIC", "µg/mL", 512),
    ("CCCCn1c2ccc(C(=O)CCl)cc2c2cc(C(=O)CCl)ccc21", "MIC", "µg/mL", 256),
    ("CCn1c2ccc(C(=O)CCl)cc2c2cc(C(=O)CCl)ccc21", "MIC", "µg/mL", 256),
    ("CCCCCCCn1c2ccc(C(=O)CCl)cc2c2cc(C(=O)CCl)ccc21", "MIC", "µg/mL", 512),
    ("CCCCCCCCCCCCCCCCn1c2ccc(-c3csc(N)n3)cc2c2cc(-c3csc(N)n3)ccc21", "MIC", "µg/mL", 128),
    ("OC(Cn1cncn1)(Cn1cncn1)c1ccc(F)cc1F", "MIC", "µg/mL", 256),
    ("CCCCCn1c2ccc(-c3csc(N)n3)cc2c2cc(-c3csc(N)n3)ccc21", "MIC", "µg/mL", 256),
    ("CCCCCCCCn1c2ccc(C(=O)CCl)cc2c2cc(C(=O)CCl)ccc21", "MIC", "µg/mL", 512),
]

Items follow; give MIC for each.
1. CCCCCCCn1c2ccc(-c3csc(N)n3)cc2c2cc(-c3csc(N)n3)ccc21
2. CCCCn1c2ccc(-c3csc(N)n3)cc2c2cc(-c3csc(N)n3)ccc21

1. 256
2. 256

Items follow; give MIC for each.
1. CCCCCCn1c2ccc(-c3csc(N)n3)cc2c2cc(-c3csc(N)n3)ccc21
2. CCCCCCCCCCCCCCCCn1c2ccc(C(=O)CCl)cc2c2cc(C(=O)CCl)ccc21
3. CCn1c2ccc(-c3csc(N)n3)cc2c2cc(-c3csc(N)n3)ccc21
4. CCCCCn1c2ccc(C(=O)CCl)cc2c2cc(C(=O)CCl)ccc21
5. CCCCCCCCn1c2ccc(-c3csc(N)n3)cc2c2cc(-c3csc(N)n3)ccc21

1. 512
2. 256
3. 256
4. 128
5. 256

* * *

Task for the reader: assign each of the following molecules its reported MIC.
# System: Candida albicans
# protocol details: Antifungal activity against Candida albicans ATCC 10231 after 24 hrs by two-fold microbroth dilution method
# Type: functional
# measurement setup: ATCC 10231, 24 h
Answers are plain numbers, in µg/mL.

# structure as smiles, MIC / µg/mL
data = [
    ("CCCn1c2ccc(C(=O)CCl)cc2c2cc(C(=O)CCl)ccc21", 256),
    ("OC(Cn1cncn1)(Cn1cncn1)c1ccc(F)cc1F", 32),
]

Items follow; give MIC for each.
1. CCCCCn1c2ccc(-c3csc(N)n3)cc2c2cc(-c3csc(N)n3)ccc21
2. CCCCCCn1c2ccc(-c3csc(N)n3)cc2c2cc(-c3csc(N)n3)ccc21
3. CCn1c2ccc(C(=O)CCl)cc2c2cc(C(=O)CCl)ccc21
4. CCn1c2ccc(-c3csc(N)n3)cc2c2cc(-c3csc(N)n3)ccc21
5. CCCCCn1c2ccc(C(=O)CCl)cc2c2cc(C(=O)CCl)ccc21
6. CCCCCCCCCCCCCCCCCCn1c2ccc(-c3csc(N)n3)cc2c2cc(-c3csc(N)n3)ccc21
7. CCCCCCCCCCn1c2ccc(C(=O)CCl)cc2c2cc(C(=O)CCl)ccc21
8. CCCCn1c2ccc(C(=O)CCl)cc2c2cc(C(=O)CCl)ccc21

1: 128; 2: 256; 3: 512; 4: 64; 5: 256; 6: 256; 7: 256; 8: 512

Items follow; give MIC for each.
1. CCCCCCCCn1c2ccc(-c3csc(N)n3)cc2c2cc(-c3csc(N)n3)ccc21
2. CCCCn1c2ccc(-c3csc(N)n3)cc2c2cc(-c3csc(N)n3)ccc21
3. CCCCCCCCCCCCCCCCCCn1c2ccc(C(=O)CCl)cc2c2cc(C(=O)CCl)ccc21
4. CCCCCCCn1c2ccc(C(=O)CCl)cc2c2cc(C(=O)CCl)ccc21

512
128
512
512

Items follow; give MIC for each.
1. CCCCCCCn1c2ccc(-c3csc(N)n3)cc2c2cc(-c3csc(N)n3)ccc21
2. CCCCCCCCCCn1c2ccc(-c3csc(N)n3)cc2c2cc(-c3csc(N)n3)ccc21

1. 128
2. 128

* * *

Task for the reader: assign each of the following compounds its reported MIC.
# Test system: Candida albicans
# protocol details: Antifungal activity against Candida albicans ATCC 10231 after 24 hrs by two-fold microbroth dilution method
# Assay type: functional
# measurement setup: ATCC 10231, 24 h
One number for each entry, in µg/mL.

Some entries whose results are on file:
# structure as smiles, tested target, MIC / µg/mL
records = [
    ("CCCCCCCCn1c2ccc(C(=O)CCl)cc2c2cc(C(=O)CCl)ccc21", "Candida albicans", 512),
    ("CCCn1c2ccc(-c3csc(N)n3)cc2c2cc(-c3csc(N)n3)ccc21", "Candida albicans", 64),
    ("CCCCCCCCCCCCCCCCn1c2ccc(-c3csc(N)n3)cc2c2cc(-c3csc(N)n3)ccc21", "Candida albicans", 512),
    ("CCCCCCn1c2ccc(C(=O)CCl)cc2c2cc(C(=O)CCl)ccc21", "Candida albicans", 512),
]

// next entry
Per the record, CCCCCCCCCCCCCCCCn1c2ccc(C(=O)CCl)cc2c2cc(C(=O)CCl)ccc21 has MIC of 512

* * *

# System: Bacillus
# protocol details: Antibacterial activity against Bacillus proteus ATCC 13315 after 24 hrs by two-fold microbroth dilution method
# Assay type: functional
# measurement setup: ATCC 13315, 24 h
Task for the reader: assign each of the following compounds its reported log10(MIC).
On a log10 scale: recorded MIC, unit µg/mL.

# compound, log10(MIC)
data = [
    ("CCCCCn1c2ccc(-c3csc(N)n3)cc2c2cc(-c3csc(N)n3)ccc21", 2.41),
    ("CCCCCCCCCCn1c2ccc(C(=O)CCl)cc2c2cc(C(=O)CCl)ccc21", 2.41),
    ("CCCCCCCCCCCCCCCCCCn1c2ccc(C(=O)CCl)cc2c2cc(C(=O)CCl)ccc21", 2.71),
    ("CCCCCCCCCCn1c2ccc(-c3csc(N)n3)cc2c2cc(-c3csc(N)n3)ccc21", 2.11),
    ("CCCCCCn1c2ccc(C(=O)CCl)cc2c2cc(C(=O)CCl)ccc21", 1.20),
    ("CCn1c2ccc(C(=O)CCl)cc2c2cc(C(=O)CCl)ccc21", 2.71),
    ("CCCCCCCCCCCCCCCCn1c2ccc(C(=O)CCl)cc2c2cc(C(=O)CCl)ccc21", 2.41),
    ("CCCCn1c2ccc(C(=O)CCl)cc2c2cc(C(=O)CCl)ccc21", 2.41),
]

Items follow; give log10(MIC) for each.
1. CCCCCCCn1c2ccc(-c3csc(N)n3)cc2c2cc(-c3csc(N)n3)ccc21
2. CCCCCCn1c2ccc(-c3csc(N)n3)cc2c2cc(-c3csc(N)n3)ccc21
3. CCCCCCCCn1c2ccc(C(=O)CCl)cc2c2cc(C(=O)CCl)ccc21
4. CCn1cc(C(=O)O)c(=O)c2cc(F)c(N3CCNCC3)cc21 [NORFLOXACIN]
5. CCCCCCCCCCCCCCCCn1c2ccc(-c3csc(N)n3)cc2c2cc(-c3csc(N)n3)ccc21
6. CCCCCCCCn1c2ccc(-c3csc(N)n3)cc2c2cc(-c3csc(N)n3)ccc21
7. CCCCCCCn1c2ccc(C(=O)CCl)cc2c2cc(C(=O)CCl)ccc21
8. CCCn1c2ccc(-c3csc(N)n3)cc2c2cc(-c3csc(N)n3)ccc21

[2.41, 2.41, 2.71, 0.60, 2.11, 2.11, 2.71, 2.41]

Items follow; give log10(MIC) for each.
1. CCn1c2ccc(-c3csc(N)n3)cc2c2cc(-c3csc(N)n3)ccc21
2. CCCCCn1c2ccc(C(=O)CCl)cc2c2cc(C(=O)CCl)ccc21
3. CCCCCCCCCCCCCCCCCCn1c2ccc(-c3csc(N)n3)cc2c2cc(-c3csc(N)n3)ccc21
4. O=C(N[C@H](CO)[C@H](O)c1ccc([N+](=O)[O-])cc1)C(Cl)Cl [CHLORAMPHENICOL]
5. CCCn1c2ccc(C(=O)CCl)cc2c2cc(C(=O)CCl)ccc21
6. CCCCn1c2ccc(-c3csc(N)n3)cc2c2cc(-c3csc(N)n3)ccc21

1: 2.41; 2: 2.71; 3: 2.41; 4: 1.51; 5: 2.11; 6: 2.11

* * *

# Test system: Escherichia coli
# protocol details: Antibacterial activity against Escherichia coli JM109 after 24 hrs by two-fold microbroth dilution method
# Assay type: functional
# measurement setup: JM109, 24 h
Task for the reader: assign each of the following compounds its reported MIC.
Answers are plain numbers, in µg/mL.

Items follow; give MIC for each.
1. CCCCCCCCCCCCCCCCn1c2ccc(C(=O)CCl)cc2c2cc(C(=O)CCl)ccc21
2. CCCCCCCCCCn1c2ccc(-c3csc(N)n3)cc2c2cc(-c3csc(N)n3)ccc21
3. CCCCCCCCCCCCCCCCn1c2ccc(-c3csc(N)n3)cc2c2cc(-c3csc(N)n3)ccc21
4. CCCCCCn1c2ccc(-c3csc(N)n3)cc2c2cc(-c3csc(N)n3)ccc21

1. 256
2. 256
3. 128
4. 128

Items follow; give MIC for each.
1. CCCCCCCCCCCCCCCCCCn1c2ccc(C(=O)CCl)cc2c2cc(C(=O)CCl)ccc21
2. CCCn1c2ccc(-c3csc(N)n3)cc2c2cc(-c3csc(N)n3)ccc21
3. CCCn1c2ccc(C(=O)CCl)cc2c2cc(C(=O)CCl)ccc21
4. CCCCCn1c2ccc(-c3csc(N)n3)cc2c2cc(-c3csc(N)n3)ccc21
5. CCCCCCCn1c2ccc(-c3csc(N)n3)cc2c2cc(-c3csc(N)n3)ccc21
6. CCCCCn1c2ccc(C(=O)CCl)cc2c2cc(C(=O)CCl)ccc21
7. CCn1c2ccc(-c3csc(N)n3)cc2c2cc(-c3csc(N)n3)ccc21

256
256
256
256
128
128
128

Items follow; give MIC for each.
1. CCCCn1c2ccc(-c3csc(N)n3)cc2c2cc(-c3csc(N)n3)ccc21
2. CCCCCCn1c2ccc(C(=O)CCl)cc2c2cc(C(=O)CCl)ccc21

1. 128
2. 512
